- TARGET DESC: cloned human 5-HT1A receptors (Homo sapiens, UniProt P08908)
- Sequence (P08908 whole entry): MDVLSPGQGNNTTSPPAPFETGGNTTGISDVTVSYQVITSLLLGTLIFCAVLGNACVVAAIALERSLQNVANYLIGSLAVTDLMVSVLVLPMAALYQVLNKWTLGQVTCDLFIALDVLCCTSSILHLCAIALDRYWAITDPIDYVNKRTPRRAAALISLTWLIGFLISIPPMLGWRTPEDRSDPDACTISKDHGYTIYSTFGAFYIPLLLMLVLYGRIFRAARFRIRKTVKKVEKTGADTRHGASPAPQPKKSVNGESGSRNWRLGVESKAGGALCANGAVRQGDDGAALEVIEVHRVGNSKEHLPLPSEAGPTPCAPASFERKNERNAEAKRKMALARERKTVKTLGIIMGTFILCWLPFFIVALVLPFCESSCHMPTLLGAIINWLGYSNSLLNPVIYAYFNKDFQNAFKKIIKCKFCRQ
- RUN DESCRIPTION: Inhibition of 3H-5-CT binding to human 5-HT1A receptors
- EXPERIMENTAL PARAMETERS: cloned human 5-HT1A receptors in HeLa cells (HA7)
ASSAY ENDPOINT: IC50 (nM)
State the answer as a number, implicitly in nM.

Here's what some known entries look like.
Clc1cccc(Cl)c1OCCCN1CCN(c2cccc3c2OCCO3)CC1 1.1
Fc1cc(F)c(OCCCN2CCN(c3cccc4c3OCCO4)CC2)c(F)c1 2
CC1(C)Cc2cc(Cl)cc(N3CCN(CCCCOc4ccc(F)cc4Cl)CC3)c2O1 52

# lookup: IC50 of `Fc1cc(Cl)c(OCCCN2CCN(c3cccc4c3OCCO4)CC2)c(Cl)c1`
2.2

# lookup: IC50 of `Fc1cc(Br)cc(F)c1OCCCCN1CCN(c2cccc3c2OCCO3)CC1`
5

# lookup: IC50 of `Fc1ccc(OCCCCN2CCN(c3cccc4ccsc34)CC2)c(Br)c1`
35

# lookup: IC50 of `Clc1ccc(Cl)c(SCCCN2CCN(c3cccc4c3OCCO4)CC2)c1`
2

# lookup: IC50 of `Fc1cc(F)c(OCCCN2CCN(c3cccc4c3OCCO4)CC2)c(Br)c1`
1.7

# lookup: IC50 of `Clc1ccc(SCCCCN2CCN(c3cccc4c3OCCO4)CC2)c(Cl)c1`
3.8

# lookup: IC50 of `Clc1ccccc1SCCCN1CCN(c2cccc3c2OCCO3)CC1`
8.8

# lookup: IC50 of `Clc1cccc(Cl)c1SCCCN1CCN(c2cccc3c2OCCO3)CC1`
1.7

# lookup: IC50 of `CC1(C)Cc2cc(Cl)cc(N3CCN(CCCOc4c(Cl)cc(F)cc4Cl)CC3)c2O1`
22

# lookup: IC50 of `FC(F)(F)c1ccc(OCCCN2CCN(c3cccc4c3OCCO4)CC2)cc1`
15

----------
- TARGET DESC: cloned human 5-HT1A receptors (Homo sapiens)
- Construct: expressed in transfected cells; host or cells: HeLa cells (HA7)
- RUN DESCRIPTION: Inhibition of 3H-5-CT binding to human 5-HT1A receptors
- EXPERIMENTAL PARAMETERS: at 100 nM; cloned human 5-HT1A receptors in HeLa cells (HA7)
# label = class 1 if inhibition at 0.1 µM >= 90% else class 0

COMPOUND	TARGET DESC	ANSWER LABEL
FC(F)(F)c1ccccc1OCCN1CCN(c2cccc3c2OCCO3)CC1 [Compound 7ae]	cloned human 5-HT1A receptors (Homo sapiens)	class 0
Cc1cccc(C)c1OCCN1CCN(c2cccc3c2OCCO3)CC1 [Compound 7ab]	cloned human 5-HT1A receptors (Homo sapiens)	class 0
Fc1ccccc1SCCN1CCN(c2cccc3c2OCCO3)CC1 [Compound 7aw]	cloned human 5-HT1A receptors (Homo sapiens)	class 0
COc1ccc(SCCN2CCN(c3cccc4c3OCCO4)CC2)cc1OC [Compound 7bg]	cloned human 5-HT1A receptors (Homo sapiens)	class 0
Cc1ccccc1SCCCCN1CCN(c2cccc3c2OCCO3)CC1 [Compound 7bc]	cloned human 5-HT1A receptors (Homo sapiens)	class 0
FC(F)(F)Oc1ccc(SCCCN2CCN(c3cccc4c3OCCO4)CC2)cc1 [Compound 7bj]	cloned human 5-HT1A receptors (Homo sapiens)	class 1
c1ccc(SCCN2CCN(c3cccc4c3OCCO4)CC2)cc1 [Compound 7aa]	cloned human 5-HT1A receptors (Homo sapiens)	class 0
Cc1cccc(SCCCN2CCN(c3cccc4c3OCCO4)CC2)c1 [Compound 7aq]	cloned human 5-HT1A receptors (Homo sapiens)	class 1

Quick check, inhibition at 0.1 µM >= 90%? Fc1ccccc1SCCCN1CCN(c2cccc3c2OCCO3)CC1 [Compound 7ba]
class 1

Quick check, inhibition at 0.1 µM >= 90%? Clc1ccccc1SCCCCN1CCN(c2cccc3c2OCCO3)CC1 [Compound 7be]
class 1

Quick check, inhibition at 0.1 µM >= 90%? Cc1ccc(Cl)c(OCCCCN2CCN(c3cccc4c3OCCO4)CC2)c1 [Compound 7ao]
class 1

Quick check, inhibition at 0.1 µM >= 90%? Cc1cccc(Cl)c1SCCCCN1CCN(c2cc(Cl)cc3c2OC(C)(C)C3)CC1 [Compound 5ax]
class 0

Quick check, inhibition at 0.1 µM >= 90%? Cc1cccc(Cl)c1SCCCCN1CCN(c2cc(Cl)cc3c2OCC3(C)C)CC1 [Compound 5ay]
class 0

----------
- TARGET DESC: human cloned dopamine D4.2 receptors (Homo sapiens, UniProt P21917, DEL265-296)
- Construct: expressed in transfected cells; host or cells: CHO cells
- Sequence (P21917 with tags, fused parts or gaps DEL265-296): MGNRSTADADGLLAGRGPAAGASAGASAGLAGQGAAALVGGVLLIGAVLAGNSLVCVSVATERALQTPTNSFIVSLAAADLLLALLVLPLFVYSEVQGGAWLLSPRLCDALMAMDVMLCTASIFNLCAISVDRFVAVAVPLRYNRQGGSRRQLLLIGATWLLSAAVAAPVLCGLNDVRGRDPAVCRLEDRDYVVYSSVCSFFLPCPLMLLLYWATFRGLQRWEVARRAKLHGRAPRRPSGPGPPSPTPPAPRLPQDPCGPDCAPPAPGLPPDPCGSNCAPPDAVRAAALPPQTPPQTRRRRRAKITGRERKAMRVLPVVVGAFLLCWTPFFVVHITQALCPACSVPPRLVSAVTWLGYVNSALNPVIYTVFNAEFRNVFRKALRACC
- RUN DESCRIPTION: Inhibition of the binding of 3H-YM-09151-2 to human dopamine D4 receptors
- EXPERIMENTAL PARAMETERS: at 50 nM; human cloned dopamine D4.2 receptors in CHO-cells
# label = 1.0 if inhibition at 0.05 µM >= 80% else 0.0

Consider the following illustrative entries.
Clc1ccc(Cl)c(SCCCCN2CCN(c3cccc4c3OCCO4)CC2)c1 1.0
Clc1cccc(SCCN2CCN(c3cccc4c3OCCO4)CC2)c1Cl 1.0
N#Cc1ccc(N2CCN(CCCOc3c(Cl)cccc3Cl)CC2)c2c1OCCO2 0.0
Cc1ccc(SCCCN2CCN(c3cccc4c3OCCO4)CC2)c(C)c1 1.0
Cc1ccccc1SCCCCN1CCN(c2cccc3c2OCCO3)CC1 1.0
Clc1cccc(SCCCN2CCN(c3cccc4c3OCCO4)CC2)c1 1.0
C=CCc1ccccc1OCCCCN1CCN(c2cccc3c2OCCO3)CC1 1.0
c1ccc(SCCN2CCN(c3cccc4c3OCCO4)CC2)cc1 1.0

Shifting focus to the compound that follows.
Quick check, inhibition at 0.05 µM >= 80%? `N#Cc1ccc(N2CCN(CCCOc3ccc(F)cc3Cl)CC2)c2c1OCCO2`
0.0

----------
Structures can show the parent of a compound that is named as a salt.
ASSAY ENDPOINT: melting point

COMPOUND	melting point
Fc1ccc(SCCCN2CCN(c3cccc4ccsc34)CC2)c(Cl)c1 (as salt: hydrochloride) [Compound 2e]	216 to 219 °C
Fc1ccc(OCCCCN2CCN(c3cccc4ccsc34)CC2)c(Cl)c1 (as salt: hydrochloride) [Compound 2f]	193 to 195 °C
Cc1cc(F)ccc1OCCCN1CCN(c2cccc3c2OCCO3)CC1 (as salt: oxalate) [Compound 1e]	139 to 150 °C

# lookup: melting point of Fc1ccc(SCCN2CCN(c3cccc4c3OCCO4)CC2)cc1 (as salt: oxalate) [Compound 3b]
200 to 202 °C

# lookup: melting point of N#Cc1ccc(N2CCN(CCCOc3ccccc3Cl)CC2)c2c1OCCO2 (as salt: oxalate) [Compound 6c]
96 to 98 °C

# lookup: melting point of N#Cc1ccc(N2CCN(CCCOc3ccc(F)cc3Br)CC2)c2c1OCCO2 (as salt: oxalate) [Compound 6b]
152 to 154 °C

# lookup: melting point of Fc1ccccc1OCCCN1CCN(c2cccc3c2OCCO3)CC1 (as salt: oxalate) [Compound 2c]
167 to 169 °C

# lookup: melting point of Clc1cccc(Cl)c1OCCCN1CCN(c2cccc3c2OCCO3)CC1 (as salt: oxalate) [Compound 1b]
179 to 181 °C

----------
Counter-ions that a name gives are not always drawn.
ASSAY ENDPOINT: melting point

Here's what some known entries look like.
MOLECULE	melting point
Fc1cc(F)c(OCCCN2CCN(c3cccc4c3OCCO4)CC2)c(F)c1 (as salt: hydrochloride) [Compound 1c]	210 to 220 °C
FC(F)(F)c1ccc(OCCCN2CCN(c3cccc4c3OCCO4)CC2)cc1 (as salt: oxalate) [Compound 2b]	148 to 150 °C
Clc1cccc(Cl)c1SCCN1CCN(c2cccc3c2OCCO3)CC1 (as salt: oxalate) [Compound 3d]	188 to 191 °C (dec.)

Next molecule, please.
# lookup: melting point of COc1cc(F)ccc1OCCCN1CCN(c2cccc3c2OCCO3)CC1 (as salt: oxalate) [Compound 1d]
141 to 142 °C

----------
- TARGET DESC: cloned human 5-HT1A receptors (Homo sapiens, UniProt P08908)
- Construct: expressed in transfected cells; host or cells: HeLa cells (HA7)
- RUN DESCRIPTION: Inhibition of 3H-5-CT binding to human 5-HT1A receptors
- EXPERIMENTAL PARAMETERS: cloned human 5-HT1A receptors in HeLa cells (HA7)
ASSAY ENDPOINT: pIC50
Keep it numeric: pIC50 is minus log10 of the concentration in mol/L.

Here's what some known entries look like.
Fc1cc(Br)cc(F)c1OCCCN1CCN(c2cccc3c2OCCO3)CC1 8.77
Clc1ccc(OCCCN2CCN(c3cccc4c3OCCO4)CC2)cc1 8.36
Cc1cc(F)ccc1OCCCN1CCN(c2ccc(C#N)c3c2OCCO3)CC1 6.92
Fc1cc(Br)c(OCCCCN2CCN(c3cccc4c3OCCO4)CC2)c(Br)c1 8.60

Next compound, please.
# lookup: pIC50 of `Fc1ccc(OCCCCN2CCN(c3cccc4ccsc34)CC2)c(Cl)c1`
7.28

FYI, the data here is from patent US20030050306A1.
